# Experimental System: T1, Bio-P19 member A2E-7 (chain 2 (heavy): C-terminal BirA substrate peptide, biotinylated there by BirA; tag letters not given, left out)
# T1 construct: also called biotinylated control peptide A2E-7/HLA-A*02:01 monomer; not shown: BirA substrate peptide (BSP) tag at the C-terminus of the heavy chain
# T1 sequence (b2m, as listed by the source): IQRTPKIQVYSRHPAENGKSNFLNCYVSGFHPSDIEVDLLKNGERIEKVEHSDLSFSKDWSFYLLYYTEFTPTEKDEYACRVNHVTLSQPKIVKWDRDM
# Protocol Notes: phage ELISA, streptavidin plate, anti-M13-HRP

# Binder, binding result
data = [
    ("PSA146/HLA-A*02:01-specific scFv phage clone #12 (scFv, V domains shown) VH: QMQLVQSGSEVKKPGASVKVSCKASGYTFTSYGISWVRQAPGQGLEWMGWISAYNGNTDYVQKLQGRVTMTTDTSTNTAYMELGSLGSDDTAVYYCARTNYNKYDIWGQGTLVTVSS VL: QSVLTQPPSVSGAPGQRVTISCTGSSSNIGAGYDVHWYQQLPGTAPKLLIYGNSNRPSGVPDRFSGSKSGTSASLAITGLQAEDEADYYCQSYDSSLSEVFGTGTKVTVLG", "no binding"),
    ("PSA146/HLA-A*02:01-specific scFv phage clone #13 (scFv, V domains shown) VH: QVQLVQSGAEVKKPGASVKVSCKASGYTFTSYYMHWVRQAPGQGLEWMGGFDPEDGETIYAQKFQGRVTMTEDTSTDTAYMGLSSLRSEDTAVYYCARYSYDYWGQGTLVTVSS VL: QAVVTQEPSLTVSPGGTVTLTCASSTGAVTSGYYPNWFQQKPGQAPRALIYSTSNKHSWTPARFSGSLLGGKAALTLSGVQPEDEAEYYCLLYYGGAYVFGTGTKVTVLG", "no binding"),
    ("PSA146/HLA-A*02:01-specific scFv phage clone #17 (scFv, V domains shown) VH: QMQLVQSGAEVKKPGESLKISCKGSGYSFTSYWIGWVRQMPGKGLEWMGIIYPGDSDTRYSPSFQGQVTISADKSISTAYLQWSSLKASDTAMYYCARLVVPDAFDIWGQGTMVTVSS VL: QSVVTQPPSVSAAPGQKVTISCSGSSSNIGNNYVSWYQQLPGTAPKLLIYDNYKRPSGIPDRFSGSKSGTSATLGITGLQTGDEADYYCGTWDSSLSAGVFGGGTKLTVLG", "no binding"),
    ("PSA146/HLA-A*02:01-specific scFv phage clone #6 (scFv, V domains shown) VH: EVQLVQSGAEVKKPGASVKVSCKASGYTFTGYYIHWVRQAPGQGLEWMGGFDPEDGETIYAQKFQDRVTMTADTSTDTAYMELSSLRSEDTAVYYCARYGFDYWGQGTLVTVSS VL: QAVVTQEPSLTVSPGGTVTLTCASSTGAVTSGYYPNWFQLKPGQAPRALIYTTGKKHSWAPARFSGSLLGGKAALTLSGVQPEDEAEYYCLLYSGGVWVFGGGTKLTVLG", "no binding"),
]

These measurements were taken from patent US20200087400A1.
